System: UniProt:P41145
Sequence (P41145 whole entry): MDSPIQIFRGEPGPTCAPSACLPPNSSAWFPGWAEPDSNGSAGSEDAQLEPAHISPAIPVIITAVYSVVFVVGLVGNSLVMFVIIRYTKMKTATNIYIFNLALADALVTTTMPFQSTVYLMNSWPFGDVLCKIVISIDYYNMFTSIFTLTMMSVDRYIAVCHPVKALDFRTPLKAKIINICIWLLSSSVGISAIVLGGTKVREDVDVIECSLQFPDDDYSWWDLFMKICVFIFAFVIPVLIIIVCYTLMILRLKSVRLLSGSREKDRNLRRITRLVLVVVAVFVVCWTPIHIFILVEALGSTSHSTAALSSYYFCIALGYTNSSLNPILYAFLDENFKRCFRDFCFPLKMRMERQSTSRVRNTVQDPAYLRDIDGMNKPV
Method Description: forskolin-induced cAMP accumulation assay, KOR agonist
Experimental Parameters: KOR Agonist EC50 ± SEM, inhibition of forskolin-induced cAMP accumulation, CHO-K1 cells expressing human KOR
For each entry below, report its EC50 value.

Smi | Assay Result
CNC[C@@H]1[C@@H]2CCC[C@@]1(c1cccc(O)c1)CCN2CCc1ccccc1 | 0.0957 µM
ON=C1[C@H]2CCC[C@]1(c1cccc(O)c1)CCN2CCc1ccccc1 | 0.146 µM
N#CC=C1[C@H]2CCC[C@]1(c1cccc(O)c1)CCN2CCc1ccccc1 | > 10 µM

State recorded EC50 for all listed molecules.
1. N#CC[C@H]1[C@H]2CCC[C@]1(c1cccc(O)c1)CCN2CCc1ccccc1
2. CNC[C@H]1[C@H]2CCC[C@]1(c1cccc(O)c1)CCN2CCc1ccccc1
3. N#CC=C1[C@@H]2CCC[C@@]1(c1cccc(O)c1)CCN2CCc1ccccc1

Result:
> 10 µM
> 10 µM
> 10 µM

====

System: human δ-opioid receptor (OPRD1) (Homo sapiens, UniProt P41143)
Sequence (P41143 whole entry): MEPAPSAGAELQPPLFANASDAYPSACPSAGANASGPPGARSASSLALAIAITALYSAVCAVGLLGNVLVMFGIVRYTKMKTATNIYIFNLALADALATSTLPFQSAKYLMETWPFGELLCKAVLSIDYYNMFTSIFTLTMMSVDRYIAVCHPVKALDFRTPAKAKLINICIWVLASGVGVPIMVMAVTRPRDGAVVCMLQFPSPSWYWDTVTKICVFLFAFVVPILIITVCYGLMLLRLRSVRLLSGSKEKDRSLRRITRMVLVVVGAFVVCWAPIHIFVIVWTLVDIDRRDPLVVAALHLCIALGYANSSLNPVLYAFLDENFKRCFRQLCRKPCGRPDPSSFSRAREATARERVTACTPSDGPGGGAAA
Method Description: forskolin-induced cAMP accumulation assay, DOR agonist
Experimental Parameters: DOR Agonist EC50 ± SEM, inhibition of forskolin-induced cAMP accumulation, CHO-K1 cells expressing human DOR
Assay Endpoint: pEC50
Numbers only, as −log10 of the molar value.

Compound | System | pEC50
N#CC=C1[C@@H]2CCC[C@@]1(c1cccc(O)c1)CCN2CCc1ccccc1 [1S,5S-28] | human δ-opioid receptor (OPRD1) (Homo sapiens, UniProt P41143) | 5.82

State recorded pEC50 for all listed compounds.
1. N#CC[C@@H]1[C@@H]2CCC[C@@]1(c1cccc(O)c1)CCN2CCc1ccccc1 [1S,5R,9S-34]
2. CNC[C@@H]1[C@@H]2CCC[C@@]1(c1cccc(O)c1)CCN2CCc1ccccc1 [1S,5R,9R-47]
3. ON=C1[C@H]2CCC[C@]1(c1cccc(O)c1)CCN2CCc1ccccc1 [1R,5R-17]
4. N[C@@H]1[C@H]2CCC[C@]1(c1cccc(O)c1)CCN2CCc1ccccc1 [1R,5R,9S-6]
5. N[C@H]1[C@H]2CCC[C@]1(c1cccc(O)c1)CCN2CCc1ccccc1 [1R,5R,9R-23]
6. CNC[C@@H]1[C@H]2CCC[C@]1(c1cccc(O)c1)CCN2CCc1ccccc1 [1R,5S,9R-52]
7. N#CC[C@H]1[C@@H]2CCC[C@@]1(c1cccc(O)c1)CCN2CCc1ccccc1 [1S,5R,9R-38]

Result:
1: 6.24; 2: 6.38; 3: 6.80; 4: 6.16; 5: 6.73; 6: 6.30; 7: 7.26

Problem: I would be grateful if you could share the reported pEC50 for CNC[C@H]1[C@H]2CCC[C@]1(c1cccc(O)c1)CCN2CCc1ccccc1 [1R,5S,9S-53] .
Result: 7.36

====

System: UniProt P41143
Method Description: forskolin-induced cAMP accumulation assay, DOR antagonist
Type: cell-based
Parameters: host or cells: cAMP Hunter CHO-K1 (Chinese hamster ovary) cells
Experimental Parameters: CHO-K1 human DOR; versus EC50 of SNC80; Imax normalized to naltrexone
Assay Endpoint: DOR Antagonist %Imax ± SEM
Write the numeric value and append its unit.

Worked set:
Compound | Assay Result
N#CC[C@H]1[C@H]2CCC[C@]1(c1cccc(O)c1)CCN2CCc1ccccc1 | 35.1 ± 2.6%
Oc1ccc2c3c1O[C@H]1c4[nH]c5ccccc5c4C[C@@]4(O)[C@@H](C2)N(CC2CC2)CC[C@]314 [Naltrindole, reference compound] | 106.8 ± 4.8%
ON=C1[C@H]2CCC[C@]1(c1cccc(O)c1)CCN2CCc1ccccc1 | 66.5 ± 6.0%

Problem: I would be grateful if you could share the reported DOR Antagonist %Imax ± SEM for CNC[C@H]1[C@H]2CCC[C@]1(c1cccc(O)c1)CCN2CCc1ccccc1 .
Result: 109.3 ± 5.2%
